# assay: melting temperature; fluorescence melt of hairpins on a sequencing array, two-state fit, raised by 9.35 °C to match UV melts
# conditions used: sodium 0.088 M
Please assign N whenever Tm is at or above 50 °C, and Y whenever it is below.

Does the reported Tm of GTATGCGGAAACGCATGC (.(((((....))))).) stay below 50 °C?
N

Does the reported Tm of GTCAGACGAAAGTCGAC (((.(((....)))))) stay below 50 °C?
N

Does the reported Tm of GATCGAGACGTCGATC ((((((....)))))) stay below 50 °C?
N

Does the reported Tm of GGCCAAGAAATTGGCC ((((((....)))))) stay below 50 °C?
N

Does the reported Tm of GATAAAGAAATTTATC ((((((....)))))) stay below 50 °C?
Y

Does the reported Tm of GATCATAATGATGATC ((((((....)))))) stay below 50 °C?
Y

Does the reported Tm of GGCCGCGAAAGCGAAGCC ((((((....)))..))) stay below 50 °C?
N

Does the reported Tm of GCCTAGCGAAAGCTCCGC ((..(((....)))..)) stay below 50 °C?
Y

Does the reported Tm of GGGTTGCGAAAGCACCC (((.(((....)))))) stay below 50 °C?
N

Does the reported Tm of GTGTTCGGAAACGAGCAC (((.(((....))).))) stay below 50 °C?
N

Does the reported Tm of GATCGTTCATACGATC ((((((....)))))) stay below 50 °C?
N

Does the reported Tm of GTAAGCGAAAGCTTATAC ((((((....)))..))) stay below 50 °C?
Y

Does the reported Tm of GTTGCAGGAAACTGTAGC (.(.(((....))).).) stay below 50 °C?
Y

Does the reported Tm of GCTTTGGGAAACCAGAGC (((.(((....))).))) stay below 50 °C?
Y

Does the reported Tm of GTGGAAGGAAACTTTCAC (((.(((....))).))) stay below 50 °C?
Y

Does the reported Tm of GAGCACGAAAGTGGCTC ((((((....))).))) stay below 50 °C?
N

Does the reported Tm of GATCTCATTTGAGATC ((((((....)))))) stay below 50 °C?
N

Does the reported Tm of GTAGGTCGAAAGACTTAC (((.(((....))).))) stay below 50 °C?
Y

Does the reported Tm of GGCCAAGGAAACTTGACC ((.((((....)))).)) stay below 50 °C?
Y

Does the reported Tm of GACTGCACGAAAGTGGTC (((..(((....)))))) stay below 50 °C?
Y

Does the reported Tm of GAGCGGCCGAAAGGCCTC (((..(((....)))))) stay below 50 °C?
Y

Does the reported Tm of GCTGTCGAAAGACACAGC ((((((....)))..))) stay below 50 °C?
Y

Does the reported Tm of CGGACCGGAAACGGACCG (((.(((....))).))) stay below 50 °C?
N

Does the reported Tm of GCCCTTGAAAAAGGGC ((((((....)))))) stay below 50 °C?
N

Does the reported Tm of GTGACCTCGAAAGAGCAC (((..(((....)))))) stay below 50 °C?
Y

Does the reported Tm of GTAGACGAAAGTCCTTAC ((((((....)))..))) stay below 50 °C?
Y

Does the reported Tm of GAACGCCGAAAGGCTTTC (((.(((....))).))) stay below 50 °C?
Y

Does the reported Tm of GCCAAACGAAAGTTGGGC (((.(((....))).))) stay below 50 °C?
N

Does the reported Tm of GCTGGACGAAAGTCGAGC (((.(((....))).))) stay below 50 °C?
N

Does the reported Tm of GCCACTGGAAACAGCAGC ((..(((....)))..)) stay below 50 °C?
Y

Does the reported Tm of GCTGGGCGAAAGCGCTGC ((.(.((....)).).)) stay below 50 °C?
N

Does the reported Tm of GTGTATACGAAAGTACAC (((..(((....)))))) stay below 50 °C?
Y

Does the reported Tm of AAGCGGAAACGCTT (((((....))))) stay below 50 °C?
N

Does the reported Tm of GTAGTAGGAAACTACCAC ((.((((....)))).)) stay below 50 °C?
Y

Does the reported Tm of GATGTCCGAAAGGATATC (((.(((....))).))) stay below 50 °C?
N

Does the reported Tm of GCGGCGCGAAAGCTGCGC (((..((....))..))) stay below 50 °C?
N

Does the reported Tm of GCCTCGCGAAAGCTACGC ((.(.((....)).).)) stay below 50 °C?
Y

Does the reported Tm of GACCATGGAAACATAGTC (((.(((....))).))) stay below 50 °C?
Y

Does the reported Tm of GACAGGCGAAAGCCGGTC (((.(((....))).))) stay below 50 °C?
N

Does the reported Tm of GCGTGCGAAAGCATCCGC ((((((....)))..))) stay below 50 °C?
Y

Does the reported Tm of GCGTTTGCGAAAGCACGC (((..(((....)))))) stay below 50 °C?
N
